tested on: U2OS; assay: Multiplex assay against U2OS; assay type: toxicity, cell-based; conditions: human, 12 h, 10 µM, compound concentration 10 uM
Non-standard residues stand in square brackets, D forms with d. Residues, ends and D or L forms follow the SMILES beside them.
Measurement Name: Population Normal (%)

[[record]]
compound = "COCCNc1cc(NC(=O)N2CCCc3cc(CN4CCOCC4=O)c(C=O)nc32)ncc1C#N"
measurement_name = "Population Normal (%)"
observed = 100

[[record]]
compound = "COc1ccc(-n2c(C)c([N+](=O)[O-])c3ccc(O)cc32)cc1"
measurement_name = "Population Normal (%)"
observed = 100

[[record]]
compound = "Cc1noc(C)c1-c1cnc2c(-c3ccc(C(=O)O)cc3)cn([C@@H](C)c3ccccn3)c2c1"
measurement_name = "Population Normal (%)"
observed = 100

[[record]]
compound = "O=C(Nc1ccccc1Br)N[C@@H]1CCN(c2ccc(C(F)(F)F)cn2)C1"
measurement_name = "Population Normal (%)"
observed = 100

[[record]]
compound = "O=C(Nc1cc(C(F)(F)F)cc(C(F)(F)F)c1)c1cc(Cl)ccc1O"
measurement_name = "Population Normal (%)"
observed = 100

[[record]]
compound = "CCC(=O)OCC(=O)[C@@]1(OC(=O)CC)[C@@H](C)C[C@H]2[C@@H]3CCC4=CC(=O)C=C[C@]4(C)[C@@]3(Cl)[C@@H](O)C[C@@]21C [BECLOMETHASONE DIPROPIONATE]"
measurement_name = "Population Normal (%)"
observed = 95

[[record]]
compound = "CC(C)C[C@@H]1NC(=O)[C@@H](C(C)C)NC(=O)[C@@H]2CCCN2C(=O)[C@@H](CC(=O)O)NC(=O)[C@@H](Cc2c[nH]c3ccccc23)NC1=O [BQ-123] (cyclo(L[dW][dD]P[dV]))"
measurement_name = "Population Normal (%)"
observed = 97


----------
test system: U2OS; experiment: Multiplex assay against U2OS; assay type: toxicity, cell-based; settings: human, 12 h, 1 µM, compound concentration 1 uM
Measurement Name: Population Mitochondria Different-Phenotype (%)

[[record]]
molecule = "Cc1cc(-c2ccc3c(c2)CC[C@H]3N2CC3(CCN(C(=O)Cc4cn5cc(C)sc5n4)CC3)C2)ncn1 [PF-5190457]"
observed = "3%"

[[record]]
molecule = "CC(C)(C)c1ccc(CSc2cnn(C(C)(C)C)c(=O)c2Cl)cc1 [PYRIDABEN]"
observed = "1%"

[[record]]
molecule = "CN(C)c1ccnc2sc3c(=O)n(N4CCCCCC4)cnc3c12"
observed = "2%"

[[record]]
molecule = "O=C(NCCO)c1cccc(-c2cc(Nc3ccc(OC(F)(F)F)cc3)ncn2)c1"
observed = "3%"


----------
test system: HEK-293T; assay: Multiplex assay against HEK293T; format: toxicity, cell-based; details: human, 12 h, 1 µM, compound concentration 1 uM
Non-standard residues stand in square brackets, D forms with d. Residues, ends and D or L forms follow the SMILES beside them.
Recorded Population Pyknosed Nuclei (%) for the following compounds
Measurement Name: Population Pyknosed Nuclei (%)

[[record]]
compound = "N[C@@]1(C(=O)O)CO[C@H]2[C@H](C(=O)O)[C@H]21"
measurement_name = "Population Pyknosed Nuclei (%)"
unit_annotation = "%"
observed = 12

[[record]]
compound = "CC(C)C[C@@H]1NC(=O)[C@@H](C(C)C)NC(=O)[C@@H]2CCCN2C(=O)[C@@H](CC(=O)O)NC(=O)[C@@H](Cc2c[nH]c3ccccc23)NC1=O [BQ-123] (cyclo(L[dW][dD]P[dV]))"
measurement_name = "Population Pyknosed Nuclei (%)"
unit_annotation = "%"
observed = 11

[[record]]
compound = "Br.CS(=O)(=O)Nc1c(O)ccc2c1CCCC2C1=NCCN1 (stereo not given)"
measurement_name = "Population Pyknosed Nuclei (%)"
unit_annotation = "%"
observed = 12

[[record]]
compound = "Cc1onc(-c2ccccc2Cl)c1C(=O)N(C)c1ccc(Cl)cc1"
measurement_name = "Population Pyknosed Nuclei (%)"
unit_annotation = "%"
observed = 12

[[record]]
compound = "CN1CCN2c3ccccc3Cc3ccccc3C2C1.Cl (stereo not given) [MIANSERIN HYDROCHLORIDE]"
measurement_name = "Population Pyknosed Nuclei (%)"
unit_annotation = "%"
observed = 14


----------
test system: U2OS; assay: Multiplex assay against U2OS; format: toxicity, cell-based; settings: human, 24 h, 1 µM, compound concentration 1 uM
Measurement Name: Population Normal (%)

[[record]]
mol_smiles = "CN(C)CCOc1ccc(/C(=C(/CCCO)c2ccccc2)c2ccc(O)cc2)cc1"
observed = 100

[[record]]
mol_smiles = "COCCNc1cc(NC(=O)N2CCCc3cc(CN4CCOCC4=O)c(C=O)nc32)ncc1C#N"
observed = 100

[[record]]
mol_smiles = "CN(C)Cc1cccc(NC(=C2C(=O)Nc3cc(C(N)=O)ccc32)c2ccccc2)c1"
observed = 100

[[record]]
mol_smiles = "CC(C)C[C@H](NC(=O)c1cc2ccccc2s1)C(=O)N1CCN(C(=O)[C@H](CO)NS(=O)(=O)c2ccc(Cl)cc2Cl)CC1"
observed = 100

[[record]]
mol_smiles = "COc1ccc(-n2c(C)c([N+](=O)[O-])c3ccc(O)cc32)cc1"
observed = 100

[[record]]
mol_smiles = "FC(F)(F)c1ccccc1-c1cc(C(F)(F)F)c2[nH]c(C3=NOC4(CCCCC4)C3)nc2c1"
observed = 100

[[record]]
mol_smiles = "CN(C)c1ccnc2sc3c(=O)n(N4CCCCCC4)cnc3c12"
observed = 97

[[record]]
mol_smiles = "O=c1ccc2ccc(OCCCCN3CCN(c4cccc5sccc45)CC3)cc2[nH]1"
observed = 96

[[record]]
mol_smiles = "CCn1cnc2c(-c3ccc(F)c(-c4ccc(S(=O)(=O)CC)cc4OC)c3)cnnc21"
observed = 100

[[record]]
mol_smiles = "CNc1nc(NCc2ncccn2)c2c(-c3ccc4ncccc4c3)c[nH]c2n1"
observed = 100

[[record]]
mol_smiles = "Cl.Clc1cc2cc(c1)-c1cnn3ccc(nc13)NCCOCCO2"
observed = 100


----------
system: HEK-293T; experiment: Multiplex assay against HEK293T; format: toxicity, cell-based; conditions: human, 48 h, 10 µM, compound concentration 10 uM
Field: label. Allowed values: criterion met (Population Pyknosed Nuclei (%) < 8%) or criterion not met (Population Pyknosed Nuclei (%) >= 8%).

[[record]]
mol_smiles = "CC(C)(O)C(=O)N1CCN(c2ccc(C(F)(F)F)c(C3=C(c4c[nH]c5ccccc45)C(=O)NC3=O)c2)CC1"
group = "criterion not met"

[[record]]
mol_smiles = "COc1ccccc1N1CCN(C[C@@H](C(=O)NC(C)(C)C)c2ccccc2)CC1.Cl.Cl"
group = "criterion not met"

[[record]]
mol_smiles = "N[C@@]1(C(=O)O)CO[C@H]2[C@H](C(=O)O)[C@H]21"
group = "criterion met"

[[record]]
mol_smiles = "CN(C)c1ccnc2sc3c(=O)n(N4CCCCCC4)cnc3c12"
group = "criterion not met"


----------
test system: HEK-293T; assay: Multiplex assay against HEK293T; format: toxicity, cell-based; conditions: human, 48 h, 1 µM, compound concentration 1 uM
Measurement Name: Population Membrane Permeable-Phenotype (%)

[[record]]
compound = "Cc1ccc(F)cc1C(=O)Nc1ccc(C(=O)N2Cc3cccn3Cc3ccccc32)c(Cl)c1"
unit_annotation = "%"
observed = 0

[[record]]
compound = "CCC(=O)OCC(=O)[C@@]1(OC(=O)CC)[C@@H](C)C[C@H]2[C@@H]3CCC4=CC(=O)C=C[C@]4(C)[C@@]3(Cl)[C@@H](O)C[C@@]21C [BECLOMETHASONE DIPROPIONATE]"
unit_annotation = "%"
observed = 0

[[record]]
compound = "Br.CS(=O)(=O)Nc1c(O)ccc2c1CCCC2C1=NCCN1 (stereo unspecified)"
unit_annotation = "%"
observed = 0

[[record]]
compound = "CC(C)(O)C(=O)N1CCN(c2ccc(C(F)(F)F)c(C3=C(c4c[nH]c5ccccc45)C(=O)NC3=O)c2)CC1"
unit_annotation = "%"
observed = 0

[[record]]
compound = "CC[C@H]1OC(=O)[C@H](C)[C@@H](O[C@H]2C[C@@](C)(OC)[C@@H](O)[C@H](C)O2)[C@H](C)[C@@H](O[C@@H]2O[C@H](C)C[C@H](N(C)C)[C@H]2O)[C@@]2(C)CC(C)=C(O2)[C@H](C)[C@@H](O)[C@]1(C)O"
unit_annotation = "%"
observed = 0

[[record]]
compound = "Cc1cc(-c2ccc3c(c2)CC[C@H]3N2CC3(CCN(C(=O)Cc4cn5cc(C)sc5n4)CC3)C2)ncn1"
unit_annotation = "%"
observed = 1

[[record]]
compound = "O=C1[C@H](Cc2ccc(O)cc2)N2C(=O)CCN(C(=O)NCc3ccccc3)[C@H]2CN1Cc1cccc2ccccc12"
unit_annotation = "%"
observed = 0

[[record]]
compound = "O=C1COc2nccc(-c3ccccc3F)c2CN1Cc1cc(C(F)(F)F)cc(C(F)(F)F)c1"
unit_annotation = "%"
observed = 0

[[record]]
compound = "COc1cc(C(=O)N(CCCc2ccccc2)Cc2ccc(CC(=O)O)cc2)cc(OC)c1C"
unit_annotation = "%"
observed = 1

[[record]]
compound = "CC(C)(C)c1ccc(CSc2cnn(C(C)(C)C)c(=O)c2Cl)cc1"
unit_annotation = "%"
observed = 0

[[record]]
compound = "C[C@H]1[C@H]2CC[C@H]3[C@@H]4CC=C5C[C@@H](N(C)C)CC[C@]5(C)[C@H]4CC[C@]23CN1C"
unit_annotation = "%"
observed = 1

